Test: MTT viability assay, 24 h
Format: cell-based
Conditions: human, normal colon fibroblasts CCD-18Co cells, 2% FBS, read-out: CC50 (µM ± SD) CCD-18Co
measured_metric: CC50 at 24 h (µM)
Answer format: numeric, µM implied, no suffix.

I am curious: what CC50 at 24 h value has been reported for [BH3-][P+](OC(C)C)(OC(C)C)C(Nc1ccc(O)cc1)c1ccccc1 (stereo not shown) ? 62.5

----------
Assay: MTT viability assay, 24 h
Format: cell-based
Settings: human, normal osteoblasts hFOB 1.19 cells, 2% FBS, read-out: CC50 (µM ± SD) hFOB 1.19
measured_metric: CC50 at 24 h (µM)
Answer format: numeric, µM implied, no suffix.

Guide cases for CC50 at 24 h, answers given:
[[record]]
compound = "[BH3-][P+](Cc1ccccc1)(OC(C)C)OC(C)C [Compound 1]"
measured_metric = "CC50 at 24 h"
units_of_measure = "µM"
observed = 161

[[record]]
compound = "[BH3-][P+](OC(C)C)(OC(C)C)C(Nc1ccc(Br)cc1)c1ccc([N+](=O)[O-])cc1 (stereo not shown) [Compound 4]"
measured_metric = "CC50 at 24 h"
units_of_measure = "µM"
observed = 189

[[record]]
compound = "[BH3-][P+](OC(C)C)(OC(C)C)C(C)(C)O [Compound 2]"
measured_metric = "CC50 at 24 h"
units_of_measure = "µM"
observed = 182

[[record]]
compound = "[BH3-][P+](OC(C)C)(N(CC)CC)C(C)(C)O (stereo not shown) [Compound 3]"
measured_metric = "CC50 at 24 h"
units_of_measure = "µM"
observed = 224

[[record]]
compound = "[BH3-][P+](OC(C)C)(OC(C)C)C(Nc1ccc(Br)cc1)c1ccc(OC)cc1 (stereo not shown) [Compound 7]"
measured_metric = "CC50 at 24 h"
units_of_measure = "µM"
observed = 214

[[record]]
compound = "[BH3-][P+](OC(C)C)(OC(C)C)C(Nc1ccc(C)cc1)c1ccccc1 (stereo not shown) [Compound 6]"
measured_metric = "CC50 at 24 h"
units_of_measure = "µM"
observed = 266


Continue with the compound presented below.
I am curious: what CC50 at 24 h value has been reported for [BH3-][P+](OC(C)C)(OC(C)C)C(Nc1ccc(O)cc1)c1ccccc1 (stereo not shown) [Compound 5] ? 43.9

----------
Tested on: osteosarcoma HOS cells
Assay: MTT proliferation assay, 96 h
Assay type: cell-based, human
Conditions: proliferation, 10% FBS, read-out: IC50 (µM ± SD) HOS
Experimental: One of the features specific totumor cells is the unlimited potential for proliferation. […] To this end, the assay conditions were established suchthat they encourage the proliferation of OS cells, i.e., the cell cultures at low density were incubated with compounds diluted in the growth medium (10% FBS) for an extended time of 96 h. […] The results of these assays were calculated as a percent of the untreated cells (100%; control). […]
measured_metric: IC50 (µM)
Answer format: numeric, µM implied, no suffix.

I am curious: what IC50 value has been reported for [NH2][Pt]([NH2])([Cl])[Cl] [CDDP, cisplatin, reference compound] ? 3.5

----------
System: osteosarcoma Saos-2 cells
Assay: MTT proliferation assay, 96 h
Format: cell-based, human
Conditions: Homo sapiens, SAOS-2, proliferation, MTT, 10% FBS, read-out: IC50 (µM ± SD) Saos-2
# IC50 per entry
Answer format: numeric, µM implied, no suffix.

[[record]]
compound = "[BH3-][P+](OC(C)C)(OC(C)C)C(Nc1ccc(O)cc1)c1ccccc1 (stereo not shown)"
observed = 96

[[record]]
compound = "[BH3-][P+](OC(C)C)(OC(C)C)C(Nc1ccc(Br)cc1)c1ccc([N+](=O)[O-])cc1 (stereo not shown)"
observed = 59.9

[[record]]
compound = "[BH3-][P+](OC(C)C)(N(CC)CC)C(C)(C)O (stereo not shown)"
observed = 79.6

[[record]]
compound = "[BH3-][P+](Cc1ccccc1)(OC(C)C)OC(C)C"
observed = 91

[[record]]
compound = "[BH3-][P+](OC(C)C)(OC(C)C)C(C)(C)O"
observed = 83.4

[[record]]
compound = "[BH3-][P+](OC(C)C)(OC(C)C)C(Nc1ccc(Br)cc1)c1ccc(OC)cc1 (stereo not shown)"
observed = 109


Continue with the compound presented below.
What value of IC50 on osteosarcoma Saos-2 cells does [BH3-][P+](OC(C)C)(OC(C)C)C(Nc1ccc(C)cc1)c1ccccc1 (stereo not shown) have? 86.8
